For Carbonic anhydrase 13 (Mus musculus), measured pKi is reported for the entries below.
Please keep in mind that pKi is minus log10 of the molar concentration; only the number is needed.

- compound: "NCCc1ccc(S(N)(=O)=O)cc1"
  experimentalSystem: "Carbonic anhydrase 13 (Mus musculus)"
  pKi: 7.37

Now let's try a different one.
Lab note: need pKi for Nc1ccc(S(N)(=O)=O)cc1Br on Carbonic anhydrase 13 (Mus musculus), anyone have it? 7.27

----------
biological target: Carbonic anhydrase 13 (Mus musculus, UniProt Q9D6N1)
Sequence (Q9D6N1 whole entry): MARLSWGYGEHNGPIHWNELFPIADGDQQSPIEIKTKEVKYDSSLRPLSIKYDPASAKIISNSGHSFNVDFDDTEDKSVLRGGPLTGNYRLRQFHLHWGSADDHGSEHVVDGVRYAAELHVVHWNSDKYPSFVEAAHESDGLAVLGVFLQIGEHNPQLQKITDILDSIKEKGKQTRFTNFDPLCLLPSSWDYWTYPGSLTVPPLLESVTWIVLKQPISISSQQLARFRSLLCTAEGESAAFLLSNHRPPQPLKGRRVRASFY
reportedProperty: pKi
Please keep in mind that pKi is minus log10 of the molar concentration; only the number is needed.

As a guide, the following entries are already answered.
- compound: "Nc1ccc(S(N)(=O)=O)cc1 [SULFANILAMIDE]"
  number: 7.49
- compound: "NCc1ccc(S(N)(=O)=O)cc1 [MAFENIDE]"
  number: 7.39

Now let's try a different one.
Lab note: need pKi for Nc1ccc(S(=O)(=O)NCCc2ccc(S(N)(=O)=O)cc2)cc1 on Carbonic anhydrase 13 (Mus musculus, UniProt Q9D6N1), anyone have it? 8.89

Source of measurements: ChEMBL document CHEMBL1146805
